testedTarget: (CUG)12
assayOverview: Isothermal titration calorimetry (ITC) binding to (CUG)12
conditions: 25° C., read-out: KD, binding affinity toward (CUG)12
quantityKind: pKd
When answering, recall that pKd equals minus log10 of the concentration in mol/L, and write that number alone.

Please report pKd for the following compound: N=C(NCCCCNc1nc(N)nc(N)n1)c1ccc(C(=N)NCCCCNc2nc(N)nc(N)n2)cc1
5.10

---

testedTarget: MBNL1-(CUG)16 complex
assayOverview: EMSA inhibition of the MBNL1-(CUG)16 complex
conditions: EMSA; KI=IC50×KD/[protein]total; read-out: KI, apparent inhibition constant, MBNL1-(CUG)16 complex
quantityKind: Ki

Please report Ki for the following compound: N=C(NCCCCNc1nc(N)nc(N)n1)c1ccc(C(=N)NCCCCNc2nc(N)nc(N)n2)cc1
16000 nM

Please report Ki for the following compound: N=C(NCCCCNc1nc(N)nc(N)n1)c1ccc(C(=N)NCCCCNc2nc(N)nc(NCCCn3cc(CCNc4nc(N)nc(NCCCCNC(=N)c5ccc(C(=N)NCCCCNc6nc(N)nc(N)n6)cc5)n4)nn3)n2)cc1
36 nM

Please report Ki for the following compound: N=C(NCCCCNc1nc(N)nc(N)n1)c1ccc(C(=N)NCCCCNc2nc(N)nc(NCCCn3cc(CNc4nc(N)nc(NCCCCNC(=N)c5ccc(C(=N)NCCCCNc6nc(N)nc(N)n6)cc5)n4)nn3)n2)cc1
25 nM
